test system: Escherichia coli TOP10; assay: shrunken log2 fold change of peptide-encoding DNA abundance (4.5 h post-induction vs induction); higher = less antimicrobial activity (less host growth inhibition); conditions: time post-induction: 4.5 h; library: site-saturation at positions 5, 18, 19, 20;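 further: peptides expressed intracellularly from a pBAD plasmid library in pooled LB shake-flask culture, induced with 0.3% L-arabinose, DNA abundance read by NGS, three biological replicates, DESeq2 with apeglm shrinkage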
Label TRUE when shrunken log2 fold change is at or above 0.2; anything below gets FALSE.

- sequence-entry: "RRIRFRPPRLPRPRPRPKVEPRP"
  assayed-system: "Escherichia coli TOP10"
  category-label: "FALSE"
- sequence-entry: "RRIRDRPPRLPRPRPRPSVVPRP"
  assayed-system: "Escherichia coli TOP10"
  category-label: "FALSE"
- sequence-entry: "RRIRKRPPRLPRPRPRPYITPRP"
  assayed-system: "Escherichia coli TOP10"
  category-label: "FALSE"
- sequence-entry: "RRIRWRPPRLPRPRPRPDISPRP"
  assayed-system: "Escherichia coli TOP10"
  category-label: "FALSE"
- sequence-entry: "RRIRGRPPRLPRPRPRPWCAPRP"
  assayed-system: "Escherichia coli TOP10"
  category-label: "TRUE"
- sequence-entry: "RRIRSRPPRLPRPRPRPGAGPRP"
  assayed-system: "Escherichia coli TOP10"
  category-label: "TRUE"
- sequence-entry: "RRIRMRPPRLPRPRPRPHRCPRP"
  assayed-system: "Escherichia coli TOP10"
  category-label: "FALSE"
- sequence-entry: "RRIRARPPRLPRPRPRPELFPRP"
  assayed-system: "Escherichia coli TOP10"
  category-label: "TRUE"
- sequence-entry: "RRIRVRPPRLPRPRPRPGGLPRP"
  assayed-system: "Escherichia coli TOP10"
  category-label: "FALSE"
- sequence-entry: "RRIRNRPPRLPRPRPRPLPTPRP"
  assayed-system: "Escherichia coli TOP10"
  category-label: "FALSE"
- sequence-entry: "RRIRYRPPRLPRPRPRPQHSPRP"
  assayed-system: "Escherichia coli TOP10"
  category-label: "FALSE"
- sequence-entry: "RRIRGRPPRLPRPRPRPNLGPRP"
  assayed-system: "Escherichia coli TOP10"
  category-label: "FALSE"
- sequence-entry: "RRIRKRPPRLPRPRPRPTLKPRP"
  assayed-system: "Escherichia coli TOP10"
  category-label: "TRUE"
